System: 3T3-L1
protocol_description: Induction of glucose uptake in mouse 3T3-L1 cells assessed as increase in glucose uptake
Type: functional, cell-based
// returns f unless IC50 is strictly below 1000 nM, in which case t

Solved cases (4 shown):
>  <compound>
N[C@H]1C(O)O[C@H](CO)[C@@H](O)[C@@H]1O (stereo not given in full)

>  <assay_target>
3T3-L1

>  <qualitative_label>
t

$$$$
>  <compound>
OC[C@H]1O[C@](O)(CO)[C@@H](O)[C@@H]1O

>  <assay_target>
3T3-L1

>  <qualitative_label>
f

$$$$
>  <compound>
OC[C@H]1OC(O)[C@H](O)[C@@H](O)[C@@H]1O (stereo not given in full)

>  <assay_target>
3T3-L1

>  <qualitative_label>
f

$$$$
>  <compound>
O=C(Oc1cccc(F)c1OC(=O)c1cccc(O)c1)c1cccc(O)c1

>  <assay_target>
3T3-L1

>  <qualitative_label>
t

$$$$

// next entry
Dear colleague, could you confirm whether IC50 of "CC(=O)CC(=O)Nc1ccc(Cl)c(C(F)(F)F)c1" falls below 1000 nM? Thanks.
f

Measured values drawn from ChEMBL document CHEMBL6096679 for this set.
